src = ChEMBL document CHEMBL4513216

assay-info: Toxicity liver stage against HepG2, at 10uM
Type: cell-based
Design: test concentration 10 uM, cell line HepG2-A16-CD81EGFP
stated-conditions: human, HepG2-A16-CD81EGFP cells; read-out: INHIBITION
endpoint: cytotoxicity at 10 µM (%)

molecule: Cn1cc(CN2C[C@H]3CCC[C@@]3(COc3ccccn3)C2)cn1
endpoint: cytotoxicity at 10 µM
endpoint-unit: %
readout-value: -107
//
molecule: CNC(=O)C1(Cc2cc(C(C)C)no2)CCN(Cc2ccccn2)C1 (stereo not drawn)
endpoint: cytotoxicity at 10 µM
endpoint-unit: %
readout-value: 6.24
//
molecule: CCN(Cc1ccncc1)c1nc(C)nc2oc(C)nc12
endpoint: cytotoxicity at 10 µM
endpoint-unit: %
readout-value: -50.6
//
molecule: COc1ccccc1C1=NOC(CC2(C(=O)O)CCOCC2)C1 (stereo not drawn)
endpoint: cytotoxicity at 10 µM
endpoint-unit: %
readout-value: -9.9
//
molecule: O=C(NCC(F)(F)F)c1coc(COc2cccc(F)c2)n1
endpoint: cytotoxicity at 10 µM
endpoint-unit: %
readout-value: -148
//
molecule: COc1c(C2CCCN2Cc2nnc(C3CC3)n2C)c(C)nn1C (stereo not drawn)
endpoint: cytotoxicity at 10 µM
endpoint-unit: %
readout-value: 7.06
//
molecule: COCC(=O)N1CCCn2c(CN3CCCC3=O)nnc2C1
endpoint: cytotoxicity at 10 µM
endpoint-unit: %
readout-value: -123
//
molecule: CC(C)Cc1nc(CN(C)c2cc(C(C)C)nc3ccnn23)no1
endpoint: cytotoxicity at 10 µM
endpoint-unit: %
readout-value: 3.61
//
molecule: COc1ccc(CC2CN(C(=O)c3coc(C)n3)CCO2)cc1 (stereo not drawn)
endpoint: cytotoxicity at 10 µM
endpoint-unit: %
readout-value: 3.8
//
molecule: Cc1ccc2c(c1)OCCCC2NCc1nccn1CC(C)C (stereo not drawn)
endpoint: cytotoxicity at 10 µM
endpoint-unit: %
readout-value: -0.77
//
molecule: CC(C)c1n[nH]c(C2CN(C(=O)c3cn4ccccc4n3)CCO2)n1 (stereo not drawn)
endpoint: cytotoxicity at 10 µM
endpoint-unit: %
readout-value: 0.153
//
molecule: CCc1nccn1CCC(=O)N1CCCC1c1cncc(NC)n1 (stereo not drawn)
endpoint: cytotoxicity at 10 µM
endpoint-unit: %
readout-value: 3.53
//
molecule: CCCn1nc(C)c(C(=O)N(C)[C@@H]2CC[C@@H](N3CCCC3)[C@@H]2O)c1C
endpoint: cytotoxicity at 10 µM
endpoint-unit: %
readout-value: 2.28
//
molecule: c1ccc(Cc2nc(CNCCn3cccn3)cs2)cc1
endpoint: cytotoxicity at 10 µM
endpoint-unit: %
readout-value: -2.79
//
molecule: Cc1ccnc(N2C[C@H]3CC[C@@H](C2)N(CC2CCC2)C3=O)n1
endpoint: cytotoxicity at 10 µM
endpoint-unit: %
readout-value: 11.4
//
molecule: CN1CC(c2n[nH]c(=O)n2-c2cccc(Cl)c2)CC1=O (stereo not drawn)
endpoint: cytotoxicity at 10 µM
endpoint-unit: %
readout-value: 3.24
//
molecule: CS(=O)(=O)N1CC[C@]2(O)CCN(CCCC(=O)c3ccccc3)C[C@@H]2C1
endpoint: cytotoxicity at 10 µM
endpoint-unit: %
readout-value: -8.86
//
molecule: Cc1ccccc1-n1cc(CN(C)C(=O)CC2C(=O)NCCN2C)cn1 (stereo not drawn)
endpoint: cytotoxicity at 10 µM
endpoint-unit: %
readout-value: 6.89
//
molecule: COc1cccc(NC(=O)NCc2cnn(C)c2)c1
endpoint: cytotoxicity at 10 µM
endpoint-unit: %
readout-value: -1.59
//
molecule: O=C1COc2ccc(C(=O)N3CCCC(n4ccnc4)C3)cc2N1 (stereo not drawn)
endpoint: cytotoxicity at 10 µM
endpoint-unit: %
readout-value: -13.5
//
molecule: CCCS(=O)(=O)N1CCN(C(C)(C)CO)CC1
endpoint: cytotoxicity at 10 µM
endpoint-unit: %
readout-value: -0.45
//
molecule: Cn1cc(NC(=O)Cn2c(CS(C)(=O)=O)nc3ccccc32)cn1
endpoint: cytotoxicity at 10 µM
endpoint-unit: %
readout-value: 1.31
//
molecule: NCC(=O)N1CCC(c2cncc(Oc3cccnc3)n2)CC1
endpoint: cytotoxicity at 10 µM
endpoint-unit: %
readout-value: -9.08
//
molecule: COCCC(=O)N1C[C@H]2CCC[C@@]2(COC)C1
endpoint: cytotoxicity at 10 µM
endpoint-unit: %
readout-value: 6.75
//
molecule: NS(=O)(=O)c1ccc(C(=O)N2CCCC2c2ccccc2)o1 (stereo not drawn)
endpoint: cytotoxicity at 10 µM
endpoint-unit: %
readout-value: -6.48
//
molecule: Cc1ccsc1CN(Cc1ncccc1C(=O)O)C1CC1
endpoint: cytotoxicity at 10 µM
endpoint-unit: %
readout-value: -5.8
//
molecule: O=C1Nc2ccccc2CC12CCCN2Cc1ccccn1 (stereo not drawn)
endpoint: cytotoxicity at 10 µM
endpoint-unit: %
readout-value: -17.1
//
molecule: O=C(CCOc1ccccc1F)N1CCCC(n2cncn2)C1 (stereo not drawn)
endpoint: cytotoxicity at 10 µM
endpoint-unit: %
readout-value: -1.22
//
molecule: O=C(c1cscn1)N1C[C@H]2CCC[C@@]2(COCc2ccccn2)C1
endpoint: cytotoxicity at 10 µM
endpoint-unit: %
readout-value: -103
//
molecule: NC(=O)CN1CC2(CCC1=O)CCN(Cc1cc(F)cc(F)c1)CC2
endpoint: cytotoxicity at 10 µM
endpoint-unit: %
readout-value: 7.1
//
molecule: CCc1noc(C(C)N2CCC(N3CCCCC3)CC2)n1 (stereo not drawn)
endpoint: cytotoxicity at 10 µM
endpoint-unit: %
readout-value: -4.8
//
molecule: Cc1[nH]c2ccc(CNc3cc(C(=O)NC(C)C)ccn3)cc2c1C
endpoint: cytotoxicity at 10 µM
endpoint-unit: %
readout-value: 16.2
//
molecule: COCCN(C)C(=O)c1ccc(OC)cc1O
endpoint: cytotoxicity at 10 µM
endpoint-unit: %
readout-value: -3.19
//
molecule: Cc1cnn(CC2CCCN2C(=O)CCc2ccco2)c1 (stereo not drawn)
endpoint: cytotoxicity at 10 µM
endpoint-unit: %
readout-value: -4.7
//
molecule: O=C(NCCOc1ccc(C(F)(F)F)cn1)c1ccoc1
endpoint: cytotoxicity at 10 µM
endpoint-unit: %
readout-value: -10.1
//
molecule: CC(CNC(=O)c1ccco1)N1CCc2sccc2C1 (stereo not drawn)
endpoint: cytotoxicity at 10 µM
endpoint-unit: %
readout-value: 0.107
//
molecule: O=C(c1ccc2c(c1)CCO2)N1CCN(c2ncccn2)CC1
endpoint: cytotoxicity at 10 µM
endpoint-unit: %
readout-value: 8.92
//
molecule: CSc1ncc(CNCC2(N3CCCCC3)Cc3ccccc3C2)cn1
endpoint: cytotoxicity at 10 µM
endpoint-unit: %
readout-value: 5.07
//
molecule: C/C=C(\C)CN(CCN1CCOCC1)Cc1ccco1
endpoint: cytotoxicity at 10 µM
endpoint-unit: %
readout-value: 11.1
//
molecule: O=C(NCc1ccncc1)C1=NOC2(CCCNC2)C1 (stereo not drawn)
endpoint: cytotoxicity at 10 µM
endpoint-unit: %
readout-value: 5.31
//
molecule: Cc1nnc(NC(=O)NCc2ccoc2)s1
endpoint: cytotoxicity at 10 µM
endpoint-unit: %
readout-value: -1.36
//
molecule: COc1cccc(C(=O)NC(CC(=O)O)c2cccs2)c1OC (stereo not drawn)
endpoint: cytotoxicity at 10 µM
endpoint-unit: %
readout-value: -8.66
//
molecule: CN(Cc1noc(C2CC2)n1)C1CCN(CCn2cc(C#N)cn2)C1 (stereo not drawn)
endpoint: cytotoxicity at 10 µM
endpoint-unit: %
readout-value: -9.1
//
molecule: COCCN1C[C@@H](C)[C@@]2(COCCN(C(=O)c3cccc(C)n3)C2)C1
endpoint: cytotoxicity at 10 µM
endpoint-unit: %
readout-value: 7.13
//
molecule: COc1ccc(C(=O)Nc2cnn(CC(=O)NC3CCCC3)c2)c(O)c1
endpoint: cytotoxicity at 10 µM
endpoint-unit: %
readout-value: -14.8
//
molecule: Cc1nnc(CN(Cc2ccco2)Cc2cccc3c2OCO3)n1C
endpoint: cytotoxicity at 10 µM
endpoint-unit: %
readout-value: -0.535
//
molecule: Cc1ccc(C(CNC(=O)Cc2nc3ncccn3n2)N(C)C)cc1 (stereo not drawn)
endpoint: cytotoxicity at 10 µM
endpoint-unit: %
readout-value: -1.64
//
molecule: Cn1cnc(S(=O)(=O)NCCCN2CCCCCC2=O)c1Cl
endpoint: cytotoxicity at 10 µM
endpoint-unit: %
readout-value: -15.6

---

assay-info: Toxicity liver stage against HepG2, at 10uM
Type: cell-based
Set-up: test concentration 10 uM, cell line HepG2-A16-CD81EGFP
stated-conditions: human, HepG2-A16-CD81EGFP cells; read-out: INHIBITION
Listing: cytotoxicity at 10 µM of selected compounds
endpoint: cytotoxicity at 10 µM

compound: CCc1cc(NC(=O)N2CCC(Oc3cccnc3)C2)n(C)n1 (centres undefined)
endpoint: cytotoxicity at 10 µM
readout-value: 5.95%
//
compound: COc1ccc(CCN(C)CCS(=O)(=O)c2ccc(Cl)cc2)cc1OC
endpoint: cytotoxicity at 10 µM
readout-value: 35.4%
//
compound: NC(=O)C(NC1CCN(Cc2ccc(F)cc2)CC1)c1ccccc1 (centres undefined)
endpoint: cytotoxicity at 10 µM
readout-value: -5.4%
//
compound: Cc1cc(C(=O)NCCn2nc3ccccn3c2=O)[nH]n1
endpoint: cytotoxicity at 10 µM
readout-value: -4.92%
//
compound: CC(C)Oc1ccc(C(=O)N2CCCSCC2CN(C)C)cc1 (centres undefined)
endpoint: cytotoxicity at 10 µM
readout-value: 9.9%
//
compound: Cc1cc2c(N3CCC(N(C)CCc4cnn(C)c4)CC3)ncnc2s1
endpoint: cytotoxicity at 10 µM
readout-value: 1.38%
//
compound: CCc1ncc(C(=O)N2CCC(Nc3ccc(C)nn3)CC2)s1
endpoint: cytotoxicity at 10 µM
readout-value: -7.94%
//
compound: Cc1cccc(C(=O)N(CC(=O)O)CC(C)C)c1
endpoint: cytotoxicity at 10 µM
readout-value: -14.3%
//
compound: CSc1nc(N)cc(N2C[C@H]3CC[C@@H](C2)N(CC2CC2)C3=O)n1
endpoint: cytotoxicity at 10 µM
readout-value: 0.291%
//
compound: COCCNC(=O)[C@@]12CCO[C@@H]1CCN(Cc1c(C)noc1C)C2
endpoint: cytotoxicity at 10 µM
readout-value: -2.45%
//
compound: CCN1CCO[C@]2(CCC[C@H]2COCc2csc(C)n2)C1
endpoint: cytotoxicity at 10 µM
readout-value: 0.153%
//
compound: COCCc1noc(CN2CCCC2c2c(C)nn(C)c2C)n1 (centres undefined)
endpoint: cytotoxicity at 10 µM
readout-value: -5.73%
//
compound: CC(=O)N(c1ccc(C)cc1)c1nc(CN2CCCC(C)C2)cs1 (centres undefined)
endpoint: cytotoxicity at 10 µM
readout-value: -6.71%
//
compound: Cc1cc(O)nc(C2CN(CCO)CCO2)n1 (centres undefined)
endpoint: cytotoxicity at 10 µM
readout-value: -27.8%
//
compound: Cc1cc(C)n(CC2CCCN2C(=O)c2ccc3[nH]c(=O)[nH]c3c2)n1 (centres undefined)
endpoint: cytotoxicity at 10 µM
readout-value: 3.18%
//
compound: O=C(Nc1cccnc1)[C@H]1C[C@H]2OCC[C@H]2N(Cc2ccc(F)cc2)C1
endpoint: cytotoxicity at 10 µM
readout-value: 0.592%
//
compound: Cc1nc(C2CCCN(C(=O)c3cc(Cl)c[nH]3)C2)sc1C (centres undefined)
endpoint: cytotoxicity at 10 µM
readout-value: -21.5%
//
compound: Cc1cnn(C2CCCN(C(=O)CCCn3ccnc3C)C2)c1 (centres undefined)
endpoint: cytotoxicity at 10 µM
readout-value: -18.3%
//
compound: CN(C)C(=O)CN1C[C@H]2CC[C@@H](C1)N(Cc1ccc3nsnc3c1)C2
endpoint: cytotoxicity at 10 µM
readout-value: 2.3%
//
compound: COCC1CC2(CCN(C(=O)c3ccco3)CC2)CN1C(C)C (centres undefined)
endpoint: cytotoxicity at 10 µM
readout-value: 4.71%
//
compound: CC(C)NC(=O)C1(Cc2ccccc2-c2cccs2)CCNC1 (centres undefined)
endpoint: cytotoxicity at 10 µM
readout-value: -42%
//
compound: c1cncc(COCc2nnc3n2CCN(Cc2ccsc2)C3)c1
endpoint: cytotoxicity at 10 µM
readout-value: -21.6%
//
compound: CC(C(=O)N1CCN(CCOc2ccccc2)CC1)n1cc(Cl)cn1 (centres undefined)
endpoint: cytotoxicity at 10 µM
readout-value: 10.4%
//
compound: CC(=O)N1CCCC(c2ccnc(N(C)C)n2)C1 (centres undefined)
endpoint: cytotoxicity at 10 µM
readout-value: -16.2%
